# System name: Influenza virus A/Panama/2007/1999 (H3N2) (Influenza A virus A/Panama/2007/1999 (H3N2))
# Experiment description: cell-based or functional assay
Quantity name: Neutralizing activity (%) at 250 µg/ml

- Binder: "Group 54 representative clone F083-354, Fab-PP-type antibody (Fab, V domains shown) VH: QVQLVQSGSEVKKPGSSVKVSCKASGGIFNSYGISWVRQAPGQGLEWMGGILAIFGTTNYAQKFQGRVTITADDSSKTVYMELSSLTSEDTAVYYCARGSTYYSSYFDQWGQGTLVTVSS VL: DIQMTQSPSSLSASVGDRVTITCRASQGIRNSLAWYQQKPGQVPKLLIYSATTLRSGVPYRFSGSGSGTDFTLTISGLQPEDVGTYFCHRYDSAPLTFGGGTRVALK"
  Measured result: -11
- Binder: "Group 42 representative clone F083-249, Fab-PP-type antibody (Fab, V domains shown) VH: QVQLVQSGSEVKKPGSSVKVSCKASGVTFSSYAISWVRQAPGQGLEWMGGISPMFGTTRYAQKFQGRVTITADESTRTGFMELSSLRSGDTAVYYCARSPTYYPGALDMWGQGTTVTVSS VL: DVVMTQSPSLLSASVGDRVTITCRASQAIANFVSWFQQKPGEAPKSLIHAASTLQGGVPPRFSGSGYGAVFTLTITNLQPEDFATYFCQQYNSLPFTFGPGTDVEVR"
  Measured result: 34.2
- Binder: "Group 64 representative clone F083-301, Fab-PP-type antibody (Fab, V domains shown) VH: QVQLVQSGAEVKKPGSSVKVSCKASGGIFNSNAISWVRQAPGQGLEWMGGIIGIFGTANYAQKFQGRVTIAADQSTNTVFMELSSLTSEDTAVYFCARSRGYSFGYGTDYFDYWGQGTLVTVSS VL: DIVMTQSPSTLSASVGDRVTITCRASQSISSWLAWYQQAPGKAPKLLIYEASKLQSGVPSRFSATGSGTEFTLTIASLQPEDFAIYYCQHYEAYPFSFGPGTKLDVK"
  Measured result: 7.5
